Taken from ChEMBL document CHEMBL3399979.

study target: UniProtKB Q06187
procedure summary: Inhibition of BTK in human Ramos cells after 20 mins by fluorescence assay
Type: cell-based
quantity name: IC50 (nM)
Give the value, in units of nM, as a plain number.

- compound structure string: "CN(C)C(=O)c1cccc(-c2cc3c(-c4cccc(-n5ccc6cc(C7CC7)cc(F)c6c5=O)c4CO)ncnc3[nH]2)c1"
  IC50 / nM: 87.3
- compound structure string: "CN1CC=C(c2cc3c(-c4cccc(-n5ccc6cc(C7CC7)cc(F)c6c5=O)c4CO)ncnc3[nH]2)CC1"
  IC50 / nM: 125
- compound structure string: "Nc1cccc(-c2cc3c(-c4cccc(-n5ccc6cc(C7CC7)cc(F)c6c5=O)c4CO)ncnc3[nH]2)c1"
  IC50 / nM: 65
- compound structure string: "O=c1c2c(F)cc(C3CC3)cc2ccn1-c1cccc(-c2ncnc3[nH]c(C4=CCN(C5COC5)CC4)cc23)c1CO"
  IC50 / nM: 11

Attention now turns to another entry.
Query: What value of IC50 has been recorded for this entry: "O=c1c2c(F)cc(C3CC3)cc2ccn1-c1cccc(-c2ncnc3[nH]c(-c4ccccc4)cc23)c1CO"
Response: 79

====

study target: Tyrosine-protein kinase BTK (Homo sapiens)
procedure summary: Inhibition of BTK (unknown origin) after 1 hr by TR-FRET analysis
quantity name: pIC50
pIC50 is a log-scale quantity: -log10 of the concentration expressed in molar.

Illustrative cases are given below, each with its answer.
- compound structure string: "COc1ccc(-c2cc3c(-c4cccc(-n5ccc6cc(C7CC7)cc(F)c6c5=O)c4CO)ncnc3[nH]2)cc1"
  value reported: 7.23
- compound structure string: "O=c1c2c(F)cc(C3CC3)cc2ccn1-c1cccc(-c2ncnc3[nH]c(C4=CCCCC4)cc23)c1CO"
  value reported: 7.11
- compound structure string: "CN(C)C(=O)c1cccc(-c2cc3c(-c4cccc(-n5ccc6cc(C7CC7)cc(F)c6c5=O)c4CO)ncnc3[nH]2)c1"
  value reported: 7.16
- compound structure string: "CN(C)C(=O)c1ccc(-c2cc3c(-c4cccc(-n5ccc6cc(C7CC7)cc(F)c6c5=O)c4CO)ncnc3[nH]2)cc1"
  value reported: 7.75

Query: What value of pIC50 has been recorded for this entry: "CS(=O)(=O)N1CC=C(c2cc3c(-c4cccc(-n5ccc6cc(C7CC7)cc(F)c6c5=O)c4CO)ncnc3[nH]2)CC1"
Response: 7.80

Query: What value of pIC50 has been recorded for this entry: "O=c1c2c(F)cc(C3CC3)cc2ccn1-c1cccc(-c2ncnc3[nH]ccc23)c1CO"
Response: 5.80

Query: What value of pIC50 has been recorded for this entry: "CNC(=O)N1CC=C(c2cc3c(-c4cccc(-n5ccc6cc(C7CC7)cc(F)c6c5=O)c4CO)ncnc3[nH]2)CC1"
Response: 7.60

====

Reported pIC50 is given for each of the following compounds.
study target: UniProt Q06187
procedure summary: Inhibition of BTK (unknown origin) after 1 hr by TR-FRET analysis
pIC50 is a log-scale quantity: -log10 of the concentration expressed in molar.

- compound structure string: "CN1CC=C(c2cc3c(-c4cccc(-n5ccc6cc(C7CC7)cc(F)c6c5=O)c4CO)ncnc3[nH]2)CC1"
  pIC50: 7.24
- compound structure string: "CN(C)C(=O)N1CCC(c2cc3c(-c4cccc(-n5ccc6cc(C7CC7)cc(F)c6c5=O)c4CO)ncnc3[nH]2)CC1"
  pIC50: 6.24
- compound structure string: "O=C(N1CC=C(c2cc3c(-c4cccc(-n5ccc6cc(C7CC7)cc(F)c6c5=O)c4CO)ncnc3[nH]2)CC1)N1CCOCC1"
  pIC50: 8.32
- compound structure string: "O=c1c2c(F)cc(C3CC3)cc2ccn1-c1cccc(-c2ncnc3[nH]c(C4=CCNCC4)cc23)c1CO"
  pIC50: 7.49
- compound structure string: "CN(C)C(=O)N1CC=C(c2cc3c(-c4cccc(-n5ccc6cc(C7CC7)cc(F)c6c5=O)c4CO)ncnc3[nH]2)CC1"
  pIC50: 8.15

Attention now turns to another entry.
Query: What value of pIC50 has been recorded for this entry: "CC(=O)N1CC=C(c2cc3c(-c4cccc(-n5ccc6cc(C7CC7)cc(F)c6c5=O)c4CO)ncnc3[nH]2)CC1"
Response: 7.82

====

study target: UniProtKB Q06187
procedure summary: Inhibition of BTK (unknown origin) after 1 hr by TR-FRET analysis
Reported IC50 is given for each of the following compounds.
Give the value, in units of µM, as a plain number.

Illustrative cases are given below, each with its answer.
- compound structure string: "O=c1c2c(F)cc(C3CC3)cc2ccn1-c1cccc(-c2ncnc3[nH]c(-c4cc[nH]n4)cc23)c1CO"
  IC50 (µM): 0.0388
- compound structure string: "O=c1c2c(F)cc(C3CC3)cc2ccn1-c1cccc(-c2ncnc3[nH]c(-c4ccc(O)cc4)cc23)c1CO"
  IC50 (µM): 0.0739
- compound structure string: "O=C(c1ccc(-c2cc3c(-c4cccc(-n5ccc6cc(C7CC7)cc(F)c6c5=O)c4CO)ncnc3[nH]2)cc1)N1CCOCC1"
  IC50 (µM): 0.0182

Query: What value of IC50 has been recorded for this entry: "O=c1c2c(F)cc(C3CC3)cc2ccn1-c1cccc(-c2ncnc3[nH]c(C4=CCSCC4)cc23)c1CO"
Response: 0.0671

====

Reported pIC50 is given for each of the following compounds.
study target: Tyrosine-protein kinase BTK (Homo sapiens)
procedure summary: Inhibition of BTK (unknown origin) after 1 hr by TR-FRET analysis
pIC50 is a log-scale quantity: -log10 of the concentration expressed in molar.

Illustrative cases are given below, each with its answer.
- compound structure string: "CC(=O)c1cc(-c2cc3c(-c4cccc(-n5ccc6cc(C7CC7)cc(F)c6c5=O)c4CO)ncnc3[nH]2)cs1"
  pIC50: 6.93
- compound structure string: "Cn1ccc(-c2cc3c(-c4cccc(-n5ccc6cc(C7CC7)cc(F)c6c5=O)c4CO)ncnc3[nH]2)n1"
  pIC50: 7.67
- compound structure string: "O=C(c1ccc(-c2cc3c(-c4cccc(-n5ccc6cc(C7CC7)cc(F)c6c5=O)c4CO)ncnc3[nH]2)cc1)N1CCCCC1"
  pIC50: 7.29

Attention now turns to another entry.
Query: What value of pIC50 has been recorded for this entry: "Nc1cccc(-c2cc3c(-c4cccc(-n5ccc6cc(C7CC7)cc(F)c6c5=O)c4CO)ncnc3[nH]2)c1"
Response: 6.87

====

Reported log10 IC50 is given for each of the following compounds.
study target: Tyrosine-protein kinase BTK (Homo sapiens, UniProt Q06187)
Sequence (Q06187 whole entry): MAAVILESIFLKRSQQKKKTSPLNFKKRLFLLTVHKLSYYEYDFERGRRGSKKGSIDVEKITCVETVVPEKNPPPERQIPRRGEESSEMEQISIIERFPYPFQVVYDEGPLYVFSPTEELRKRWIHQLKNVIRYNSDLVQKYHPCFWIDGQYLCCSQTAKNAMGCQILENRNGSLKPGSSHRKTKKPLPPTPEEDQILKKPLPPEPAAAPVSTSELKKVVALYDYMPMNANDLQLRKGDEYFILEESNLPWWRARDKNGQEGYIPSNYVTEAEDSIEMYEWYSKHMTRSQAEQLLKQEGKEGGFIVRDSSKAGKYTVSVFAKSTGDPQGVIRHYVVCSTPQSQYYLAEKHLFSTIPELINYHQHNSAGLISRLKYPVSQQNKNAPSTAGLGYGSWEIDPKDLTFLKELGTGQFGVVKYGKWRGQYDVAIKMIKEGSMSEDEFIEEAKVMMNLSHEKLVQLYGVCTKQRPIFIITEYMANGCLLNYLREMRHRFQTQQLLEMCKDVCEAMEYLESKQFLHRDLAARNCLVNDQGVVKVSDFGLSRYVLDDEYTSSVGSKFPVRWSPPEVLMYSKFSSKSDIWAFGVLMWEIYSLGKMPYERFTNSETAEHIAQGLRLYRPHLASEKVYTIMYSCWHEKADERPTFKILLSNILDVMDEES
procedure summary: Inhibition of BTK in human Ramos cells after 20 mins by fluorescence assay
Format: cell-based
// do not treat as linear: log10 of IC50, unit µM

- compound structure string: "CN(C)S(=O)(=O)N1CC=C(c2cc3c(-c4cccc(-n5ccc6cc(C7CC7)cc(F)c6c5=O)c4CO)ncnc3[nH]2)CC1"
  log10 IC50: -1.59
- compound structure string: "O=c1c2c(F)cc(C3CC3)cc2ccn1-c1cccc(-c2ncnc3[nH]c(-c4ccc(CN5CCOCC5)cc4)cc23)c1CO"
  log10 IC50: -1.92
- compound structure string: "CNC(=O)N1CC=C(c2cc3c(-c4cccc(-n5ccc6cc(C7CC7)cc(F)c6c5=O)c4CO)ncnc3[nH]2)CC1"
  log10 IC50: -1.29
- compound structure string: "CN(C)C(=O)N1CC=C(c2cc3c(-c4cccc(-n5ccc6cc(C7CC7)cc(F)c6c5=O)c4CO)ncnc3[nH]2)CC1"
  log10 IC50: -1.67
- compound structure string: "COc1ccc(-c2cc3c(-c4cccc(-n5ccc6cc(C7CC7)cc(F)c6c5=O)c4CO)ncnc3[nH]2)cn1"
  log10 IC50: -1.13
- compound structure string: "O=c1c2c(F)cc(C3CC3)cc2ccn1-c1cccc(-c2ncnc3[nH]c(C4=CCSCC4)cc23)c1CO"
  log10 IC50: -1.34
- compound structure string: "O=c1c2c(F)cc(C3CC3)cc2ccn1-c1cccc(-c2ncnc3[nH]c(C4=CCNCC4)cc23)c1CO"
  log10 IC50: -1.02
- compound structure string: "O=C(c1ccc(-c2cc3c(-c4cccc(-n5ccc6cc(C7CC7)cc(F)c6c5=O)c4CO)ncnc3[nH]2)cc1)N1CCOCC1"
  log10 IC50: -2.00
- compound structure string: "CC(=O)c1cc(-c2cc3c(-c4cccc(-n5ccc6cc(C7CC7)cc(F)c6c5=O)c4CO)ncnc3[nH]2)cs1"
  log10 IC50: -1.24
- compound structure string: "O=c1c2c(F)cc(C3CC3)cc2ccn1-c1cccc(-c2ncnc3[nH]c(-c4cc[nH]n4)cc23)c1CO"
  log10 IC50: -1.33

Attention now turns to another entry.
Query: What value of log10 IC50 has been recorded for this entry: "CN(C)C(=O)c1ccc(-c2cc3c(-c4cccc(-n5ccc6cc(C7CC7)cc(F)c6c5=O)c4CO)ncnc3[nH]2)cc1"
Response: -1.82
